# Experimental System: T1, Human CD3eg linker (human)
# T1 construct: Single chain: epsilon and gamma subunits of human CD3 joined by a 29-mer linker, Flag-tag at the C-terminus; also called recombinant human CD3
# T1 chain: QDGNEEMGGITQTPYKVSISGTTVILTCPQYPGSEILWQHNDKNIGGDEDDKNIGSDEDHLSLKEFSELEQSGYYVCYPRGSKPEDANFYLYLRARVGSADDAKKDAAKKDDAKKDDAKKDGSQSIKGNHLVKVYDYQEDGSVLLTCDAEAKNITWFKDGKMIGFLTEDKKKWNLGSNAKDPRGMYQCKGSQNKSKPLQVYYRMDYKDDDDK
# Measurement Notes: Biacore SPR, vs template H183/L072
Measurement Type: fold change of affinity (fold)
Report as a plain number; the unit fold is understood.

H183/L072 VH N31P (antibody, name in Kabat numbering, V domains shown) VH: QVQLVESGGGLVQPGRSLRLSCAASGFTFSPAWMHWVRQAPGKGLEWVAQIKDKGNAYAAYYAPSVKGRFTISRDDSKNSIYLQMNSLKTEDTAVYYCHYVHYASASTVLPAFGVDAWGQGTTVTVSS VL: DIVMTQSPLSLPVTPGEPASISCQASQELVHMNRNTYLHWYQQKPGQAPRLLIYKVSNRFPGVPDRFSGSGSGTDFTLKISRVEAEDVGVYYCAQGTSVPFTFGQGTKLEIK | 0.1

stdin: # get_value(readout='fold change of affinity', item= H183/L072 VH A60K (antibody, name in Kabat numbering, V domains shown) VH: QVQLVESGGGLVQPGRSLRLSCAASGFTFSNAWMHWVRQAPGKGLEWVAQIKDKGNAYAAYYKPSVKGRFTISRDDSKNSIYLQMNSLKTEDTAVYYCHYVHYASASTVLPAFGVDAWGQGTTVTVSS VL: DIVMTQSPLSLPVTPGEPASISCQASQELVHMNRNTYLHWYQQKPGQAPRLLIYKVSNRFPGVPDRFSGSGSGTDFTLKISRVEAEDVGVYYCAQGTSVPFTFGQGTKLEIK )
stdout: 0.9

stdin: Any idea what fold change of affinity was measured for H183/L072 VH A57V (antibody, name in Kabat numbering, V domains shown) VH: QVQLVESGGGLVQPGRSLRLSCAASGFTFSNAWMHWVRQAPGKGLEWVAQIKDKGNAYAVYYAPSVKGRFTISRDDSKNSIYLQMNSLKTEDTAVYYCHYVHYASASTVLPAFGVDAWGQGTTVTVSS VL: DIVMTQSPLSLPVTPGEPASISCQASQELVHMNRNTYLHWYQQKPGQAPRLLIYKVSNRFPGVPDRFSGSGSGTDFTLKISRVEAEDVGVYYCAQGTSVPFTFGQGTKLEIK ?
stdout: 0.9

stdin: What value of fold change of affinity has been reported for the following binder? H183/L072 VH A100fM (antibody, name in Kabat numbering, V domains shown) VH: QVQLVESGGGLVQPGRSLRLSCAASGFTFSNAWMHWVRQAPGKGLEWVAQIKDKGNAYAAYYAPSVKGRFTISRDDSKNSIYLQMNSLKTEDTAVYYCHYVHYASASTVLPMFGVDAWGQGTTVTVSS VL: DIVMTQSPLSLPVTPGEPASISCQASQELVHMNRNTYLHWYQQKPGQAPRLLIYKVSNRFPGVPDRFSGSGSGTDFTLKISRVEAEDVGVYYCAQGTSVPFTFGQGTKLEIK
stdout: 1.3

stdin: Consider the binder shown here: H183/L072 VH F100gP (antibody, name in Kabat numbering, V domains shown) VH: QVQLVESGGGLVQPGRSLRLSCAASGFTFSNAWMHWVRQAPGKGLEWVAQIKDKGNAYAAYYAPSVKGRFTISRDDSKNSIYLQMNSLKTEDTAVYYCHYVHYASASTVLPAPGVDAWGQGTTVTVSS VL: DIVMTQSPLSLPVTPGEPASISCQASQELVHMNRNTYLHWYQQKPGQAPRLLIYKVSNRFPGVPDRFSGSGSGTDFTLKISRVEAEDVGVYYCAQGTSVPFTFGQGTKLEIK What is its recorded fold change of affinity?
stdout: 1.8

stdin: Quick one: fold change of affinity for H183/L072 VH Y58V (antibody, name in Kabat numbering, V domains shown) VH: QVQLVESGGGLVQPGRSLRLSCAASGFTFSNAWMHWVRQAPGKGLEWVAQIKDKGNAYAAVYAPSVKGRFTISRDDSKNSIYLQMNSLKTEDTAVYYCHYVHYASASTVLPAFGVDAWGQGTTVTVSS VL: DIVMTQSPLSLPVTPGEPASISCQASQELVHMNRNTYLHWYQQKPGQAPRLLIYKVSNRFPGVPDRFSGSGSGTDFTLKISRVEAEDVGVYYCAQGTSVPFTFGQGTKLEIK ?
stdout: 0.3

stdin: So what's the measured fold change of affinity for this one? H183/L072 VH D52aW (antibody, name in Kabat numbering, V domains shown) VH: QVQLVESGGGLVQPGRSLRLSCAASGFTFSNAWMHWVRQAPGKGLEWVAQIKWKGNAYAAYYAPSVKGRFTISRDDSKNSIYLQMNSLKTEDTAVYYCHYVHYASASTVLPAFGVDAWGQGTTVTVSS VL: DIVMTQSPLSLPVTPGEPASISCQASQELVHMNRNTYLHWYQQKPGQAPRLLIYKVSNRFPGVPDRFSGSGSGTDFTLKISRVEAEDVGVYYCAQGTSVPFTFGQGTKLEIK
stdout: 0

stdin: Dear colleague, I am looking for the recorded fold change of affinity of the following binder: H183/L072 VH Q50L (antibody, name in Kabat numbering, V domains shown) VH: QVQLVESGGGLVQPGRSLRLSCAASGFTFSNAWMHWVRQAPGKGLEWVALIKDKGNAYAAYYAPSVKGRFTISRDDSKNSIYLQMNSLKTEDTAVYYCHYVHYASASTVLPAFGVDAWGQGTTVTVSS VL: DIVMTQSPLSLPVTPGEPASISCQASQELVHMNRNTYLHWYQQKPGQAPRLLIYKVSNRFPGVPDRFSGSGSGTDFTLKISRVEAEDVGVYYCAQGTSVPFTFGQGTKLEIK
stdout: 0.2

stdin: Tell me the measured fold change of affinity of H183/L072 VH A57K (antibody, name in Kabat numbering, V domains shown) VH: QVQLVESGGGLVQPGRSLRLSCAASGFTFSNAWMHWVRQAPGKGLEWVAQIKDKGNAYAKYYAPSVKGRFTISRDDSKNSIYLQMNSLKTEDTAVYYCHYVHYASASTVLPAFGVDAWGQGTTVTVSS VL: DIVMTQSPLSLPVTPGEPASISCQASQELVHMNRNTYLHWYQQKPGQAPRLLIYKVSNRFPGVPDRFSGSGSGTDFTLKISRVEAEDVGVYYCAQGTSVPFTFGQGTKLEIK , please.
stdout: 1.5

stdin: Suppose we examine the binder H183/L072 VH Y55H (antibody, name in Kabat numbering, V domains shown) VH: QVQLVESGGGLVQPGRSLRLSCAASGFTFSNAWMHWVRQAPGKGLEWVAQIKDKGNAHAAYYAPSVKGRFTISRDDSKNSIYLQMNSLKTEDTAVYYCHYVHYASASTVLPAFGVDAWGQGTTVTVSS VL: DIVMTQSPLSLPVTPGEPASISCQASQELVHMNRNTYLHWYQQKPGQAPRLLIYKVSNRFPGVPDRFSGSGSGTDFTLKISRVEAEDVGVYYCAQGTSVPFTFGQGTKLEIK ; what fold change of affinity value has been reported?
stdout: 0.7
